# target entity: spotted gar TAAR1b (Lepisosteus oculatus, UniProt W5NMY1)
# Sequence (W5NMY1 entry or part of it): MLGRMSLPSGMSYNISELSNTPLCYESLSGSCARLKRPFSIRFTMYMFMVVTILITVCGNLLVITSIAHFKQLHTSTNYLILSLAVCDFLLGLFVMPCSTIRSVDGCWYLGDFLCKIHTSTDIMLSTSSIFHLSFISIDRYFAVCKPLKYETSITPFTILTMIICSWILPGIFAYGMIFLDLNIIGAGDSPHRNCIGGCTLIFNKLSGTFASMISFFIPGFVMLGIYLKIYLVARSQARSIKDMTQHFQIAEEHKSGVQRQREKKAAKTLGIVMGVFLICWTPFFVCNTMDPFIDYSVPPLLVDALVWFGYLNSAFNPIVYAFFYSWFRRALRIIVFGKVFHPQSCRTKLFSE
# protocol summary: Cell-based receptor activation reporter assay (SEAP / Dual-Glo luciferase)

- smiles entry: "NCCc1ccc(O)cc1"
  EC50 (µM): 0.7

----------
# target entity: TARLL3h (Petromyzon marinus, UniProt A0A678XJN9)
# Sequence (A0A678XJN9 entry or part of it): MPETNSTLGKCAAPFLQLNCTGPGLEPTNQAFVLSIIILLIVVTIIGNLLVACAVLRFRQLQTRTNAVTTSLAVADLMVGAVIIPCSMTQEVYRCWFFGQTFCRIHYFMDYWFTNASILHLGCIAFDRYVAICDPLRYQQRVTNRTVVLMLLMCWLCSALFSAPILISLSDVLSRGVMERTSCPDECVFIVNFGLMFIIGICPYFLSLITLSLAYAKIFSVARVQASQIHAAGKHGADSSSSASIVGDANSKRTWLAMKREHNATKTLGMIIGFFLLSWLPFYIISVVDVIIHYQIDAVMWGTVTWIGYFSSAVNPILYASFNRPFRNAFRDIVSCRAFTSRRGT
# protocol summary: Cell-based receptor activation reporter assay (SEAP / Dual-Glo luciferase)
# condition parameters: TARLL3h
pEC50: −log10 of the molar value.
Reported pEC50 values are given for each entry in this list.

- compound: "CN(C)CCCN(C)C [N,N,N',N'-tetramethyl-1,3-propanediamine, N,N,N′,N′-Tetramethyl-1,3-propanediamine]"
  pEC50: 3.93
- compound: "CN(C)CCCCN(C)C [N,N,N',N'-tetramethyl-1,4-butanediamine, N,N,N′,N′-tetramethyl-1,4-butanediamine]"
  pEC50: 4.39

Source: paper PMC8890504
